# Tested on: B cell
# TEST PROTOCOL: B cell proliferation
# Type: cell-based
Give measured EC50 for each item. Keep answers brief.

Lookup result for `Cc1cccc2cc(Cn3nc(I)c4c(N)ncnc43)n(C3CC3)c(=O)c12` ; measured EC50: < 1 µM

So for `CCc1ccccc1-n1c(Cn2nc(C#C[C@@H](C)O)c3c(N)ncnc32)cc2cccc(C)c2c1=O` , the logged EC50 turned out to be < 0.1 µM

Just so you know, measured EC50 for `Cc1cccc2cc(Cn3nc(-c4cccc(O)c4)c4c(N)ncnc43)n(C)c(=O)c12` came out at < 1 µM

// sample `Cc1ccccc1-n1c(Cn2nc(Br)c3c(N)ncnc32)cc2cccc(C)c2c1=O` , its EC50 was < 1 µM

Record summary for `Cc1cccc2cc(Cn3nc(-c4cn[nH]c4)c4c(N)ncnc43)n(-c3ccccc3C(C)C)c(=O)c12` : reported EC50 = < 0.1 µM

Entry under test: `Cc1cccc2cc(Cn3nc(-c4ccc(O)c(Cl)c4)c4c(N)ncnc43)n(-c3ccccc3F)c(=O)c12` . Its EC50 was < 10 µM

EC50 reported for this molecule `Cc1cccc2cc(Cn3nc(-c4cccc(O)c4)c4c(N)ncnc43)n(C3CCC3)c(=O)c12` : < 1 µM

Entry `Cc1cccc2cc(Cn3nc(-c4cn[nH]c4)c4c(N)ncnc43)n(-c3ccccc3F)c(=O)c12` ; EC50 = < 1 µM

Form field EC50, entry `Cc1ccccc1-n1c(Cn2nc(-c3ccc4nc(N)ccc4c3)c3c(N)ncnc32)cc2cccc(C)c2c1=O` : < 0.1 µM

Query `Cc1cccc2cc(Cn3nc(Cl)c4c(N)ncnc43)n(-c3ccccc3F)c(=O)c12` yields EC50 of < 1 µM

Reported EC50 ( `C[C@H](Nc1ncnc2[nH]cnc12)c1cc2cccc(Cl)c2c(=O)n1C1CC1` ) = < 0.1 µM

What the record says about `Cc1ccccc1-n1c(Cn2nc(-c3cccc(O)c3)c3c(N)nccc32)cc2cccc(C)c2c1=O` : EC50 is < 1 µM

Given item `Cc1cccc2cc(Cn3nc(C#CCO)c4c(N)ncnc43)n(-c3ccccc3F)c(=O)c12` , the value recorded as its EC50 is < 1 µM

---

Provide the reported EC50 of each item.
# System: B cell
# TEST PROTOCOL: B cell proliferation
# Type: cell-based

Item: Cc1cccc2cc(C(C)Nc3ncnc4[nH]cnc34)n(-c3cc(F)cc(F)c3)c(=O)c12 (stereo not drawn) | EC50: < 100 nM

Reported EC50 ( `CCc1nn(Cc2cc3cccc(C)c3c(=O)n2-c2ccccc2)c2ncnc(N)c12` ) = < 100 nM

Item: `Cc1cccc2cc([C@H](C)Nc3ncnc4[nH]cnc34)n(C3CC3)c(=O)c12` | EC50: < 100 nM

`Cc1cccnc1-n1c(Cn2nc(C#C[C@@H](C)O)c3c(N)ncnc32)cc2cccc(C)c2c1=O` yielded EC50 of < 1000 nM

# EC50 (molecule: CCC(Nc1ncnc2[nH]cnc12)c1cc2cccc(C)c2c(=O)n1-c1cc(F)cc(F)c1 (stereo not drawn) ) is < 100 nM

So, `Cc1cccc2cc(Cn3nc(I)c4c(N)ncnc43)n(C3CCCCC3)c(=O)c12` ? Its EC50 was < 10000 nM

Per the record, `Cc1ccccc1-n1c(Cn2nc(-c3ccc4ncnc(N)c4c3)c3c(N)ncnc32)cc2cccc(C)c2c1=O` has EC50 of < 1000 nM

GET /value?item= `Cc1ccccc1-n1c(Cn2nc(/C=C3/SC(=O)NC3=O)c3c(N)ncnc32)cc2cccc(C)c2c1=O` &field=EC50 returns < 100 nM

Reported EC50 of `CCc1nn(Cc2cc3cccc(C)c3c(=O)n2-c2ccccc2C)c2ncnc(N)c12` : < 1000 nM

---

For each of the molecules below, state its pEC50.
# System: B cell
# TEST PROTOCOL: B cell proliferation
# Assay type: cell-based
pEC50: −log10 of the molar value.

Lookup result for `Cc1cccnc1-n1c(Cn2nc(Cl)c3c(N)ncnc32)cc2cccc(C)c2c1=O` ; measured pEC50: > 6.00

# molecule `CC(C)n1c(Cn2nc(-c3cc(O)cc(F)c3)c3c(N)ncnc32)cc2cccc(F)c2c1=O` ; its pEC50 = > 7.00

Recorded result, `Cc1ccccc1-n1c(Cn2nc(-c3cn[nH]c3)c3c(N)ncnc32)cc2cccc(C)c2c1=O` , pEC50: > 7.00

Measured pEC50, `Cc1ccccc1-n1c(Cn2nc(C#CCO)c3c(N)ncnc32)cc2cccc(C)c2c1=O` : > 6.00

Memo: `Cc1cccc2cc([C@H](C)Nc3nc(N)ncc3Cl)n(-c3ccccc3)c(=O)c12` , reported pEC50: > 7.00

Input `Cc1ccccc1-n1c(Cn2nc(-c3ccc(Cl)cc3)c3c(N)ncnc32)cc2cccc(C)c2c1=O` . Output pEC50: > 5.00

Measured values drawn from patent US20140120060A1 for this set.
